biological target: BCL6 (Homo sapiens, UniProt P41182); construct: HiBiT-tag knocked into endogenous BCL6 locus using CRISPR; endogenous in cells; host or cells: DHL-4_BCL6_HiBiT cells (CRISPR knock-in); experiment: BCL6_HiBiT degradation assay (2 h); type: cell-based; settings: DHL-4_BCL6_HiBiT cells, read-out: YCon (% remaining maximal effect)
Reported Endpoint: Percent BCL6 remaining at maximal degradation (Ycon)

# Molecule, Subject Of Test, Observed
rows = [
    ("C[C@@H]1CN(c2ncc(Cl)c(Nc3ccc4c(c3)CC(=O)N4C)n2)C[C@H](C)N1c1ccc2c(C3CCC(=O)NC3=O)nn(C)c2c1 (stereo partly drawn)", "BCL6 (Homo sapiens, UniProt P41182)", "> 60%"),
    ("CN1C(=O)Cc2cc(Nc3nc(N4CCC(Nc5ccc6c(N7CCC(=O)NC7=O)nn(C)c6c5)CC4)ncc3Cl)ccc21", "BCL6 (Homo sapiens, UniProt P41182)", "> 60%"),
    ("C[C@@H]1CN(c2ncc(Cl)c(Nc3ccc4c(c3)CC(=O)N4CC(C)(F)F)n2)CC[C@H]1Nc1ccc2c(C3CCC(=O)NC3=O)nn(C)c2c1 (stereo partly drawn)", "BCL6 (Homo sapiens, UniProt P41182)", "< 20%"),
    ("CNCCN1C(=O)Cc2cc(Nc3nc(N4CC[C@@H](Nc5ccc6c([C@H]7CCC(=O)NC7=O)nn(C)c6c5)[C@H](C)C4)ncc3Cl)ccc21 (single isomer, unassigned)", "BCL6 (Homo sapiens, UniProt P41182)", "< 20%"),
    ("CN1C(=O)Cc2cc(Nc3nc(N4CCN(Cc5ccc6c(C7CCC(=O)NC7=O)nn(C)c6c5)CC4)ncc3Cl)ccc21 (stereo not drawn)", "BCL6 (Homo sapiens, UniProt P41182)", "> 60%"),
    ("C[C@H]1C[C@@H](Nc2ccc3c(C4CCC(=O)NC4=O)nn(C)c3c2)CCN1c1ncc(Cl)c(Nc2ccc3c(c2)CC(=O)N3C)n1 (stereo partly drawn)", "BCL6 (Homo sapiens, UniProt P41182)", "20 to 60%"),
    ("C[C@@H]1CN(c2ncc(Cl)c(Nc3cc4c(cc3F)N(C)C(=O)C4)n2)CC[C@H]1Nc1ccc2c(C3CCC(=O)NC3=O)nn(C)c2c1 (stereo partly drawn)", "BCL6 (Homo sapiens, UniProt P41182)", "< 20%"),
    ("Cn1nc(N2CCC(=O)NC2=O)c2ccc(NC3CCN(c4ncc(Cl)c(Nc5ccc6c(c5)CC(=O)N6CCO)n4)CC3)cc21", "BCL6 (Homo sapiens, UniProt P41182)", "20 to 60%"),
    ("C[C@@H]1CN(c2ncc(Cl)c(Nc3ccc4c(c3F)CC(=O)N4C)n2)CC[C@H]1Nc1ccc2c(N3CCC(=O)NC3=O)nn(C)c2c1", "BCL6 (Homo sapiens, UniProt P41182)", "< 20%"),
    ("C[C@H]1C(=O)N(c2ccc3c(C4CCC(=O)NC4=O)nn(C)c3c2)CC[C@@H]1N(C)c1ncc(Cl)c(Nc2ccc3c(c2)CC(=O)N3C)n1 (single isomer, unassigned)", "BCL6 (Homo sapiens, UniProt P41182)", "> 60%"),
    ("CN1C(=O)Cc2cc(Nc3nc(N4CC[C@@H](Nc5ccc6c(C7CCC(=O)NC7=O)nn(C)c6n5)[C@H](O)C4)ncc3Cl)ccc21 (stereo partly drawn)", "BCL6 (Homo sapiens, UniProt P41182)", "20 to 60%"),
    ("Cn1nc(C2CCC(=O)NC2=O)c2ccc(N3CCC(Nc4ncc(Cl)c(Nc5ccc6c(c5)N(CCC(C)(C)O)C(=O)C6)n4)CC3)cc21 (stereo not drawn)", "BCL6 (Homo sapiens, UniProt P41182)", "> 60%"),
]
